target: Recombinant human CSF1R kinase (Homo sapiens (Human)); details: Z-LYTE Tyr 1 peptide substrate
Sequence (P07333 20-972): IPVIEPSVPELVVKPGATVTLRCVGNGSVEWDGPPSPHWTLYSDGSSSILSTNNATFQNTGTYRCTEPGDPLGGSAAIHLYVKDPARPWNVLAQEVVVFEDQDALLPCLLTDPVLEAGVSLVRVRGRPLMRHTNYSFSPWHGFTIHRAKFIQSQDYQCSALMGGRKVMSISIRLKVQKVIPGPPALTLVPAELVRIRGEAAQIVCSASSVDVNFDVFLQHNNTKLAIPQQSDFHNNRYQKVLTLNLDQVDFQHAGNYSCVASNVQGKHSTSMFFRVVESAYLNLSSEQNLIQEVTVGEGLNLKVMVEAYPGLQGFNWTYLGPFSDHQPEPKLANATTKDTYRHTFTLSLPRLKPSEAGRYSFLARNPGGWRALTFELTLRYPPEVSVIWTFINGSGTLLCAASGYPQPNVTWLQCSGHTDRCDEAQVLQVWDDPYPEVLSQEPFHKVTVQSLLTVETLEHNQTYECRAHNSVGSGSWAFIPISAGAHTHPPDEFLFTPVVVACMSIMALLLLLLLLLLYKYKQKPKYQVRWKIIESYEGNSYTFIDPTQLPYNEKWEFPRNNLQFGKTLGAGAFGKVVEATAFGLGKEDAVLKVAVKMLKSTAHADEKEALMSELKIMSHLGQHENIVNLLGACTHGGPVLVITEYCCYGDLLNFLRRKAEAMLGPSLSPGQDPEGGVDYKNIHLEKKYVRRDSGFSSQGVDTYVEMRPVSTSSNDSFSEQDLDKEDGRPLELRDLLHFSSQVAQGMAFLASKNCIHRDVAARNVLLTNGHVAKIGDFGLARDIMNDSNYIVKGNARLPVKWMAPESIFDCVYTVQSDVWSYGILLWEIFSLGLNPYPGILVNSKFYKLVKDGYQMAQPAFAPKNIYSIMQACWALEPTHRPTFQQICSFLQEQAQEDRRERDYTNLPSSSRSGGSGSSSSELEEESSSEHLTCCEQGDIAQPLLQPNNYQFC
QUANTITY: pIC50
The scale used: pIC50 is minus the common logarithm of the concentration in molar units.

{"CHEMICAL_STRUCTURE": "Cn1cccc(C(=O)Nc2ccc(Oc3ccnc(-n4cccn4)c3)cn2)c1=O", "pIC50": 6.77}
{"CHEMICAL_STRUCTURE": "CNCCn1cc(-c2cc(Oc3ccc(NC(=O)c4cnc(C)n(C)c4=O)nc3)ccn2)cn1", "pIC50": 6.95}
{"CHEMICAL_STRUCTURE": "Cc1ncc(C(=O)Nc2ccc(Oc3ccnc(-c4ccn(C)c4)c3)cn2)c(=O)n1C", "pIC50": 8.15}

Param item = Cn1nccc1Nc1cc(Oc2ccc(NC(=O)c3cccn(C)c3=O)nc2)ccn1 ; retrieve measured pIC50.
8.30
